We begin with Ki values for 5-hydroxytryptamine receptor 6 (Homo sapiens, UniProt P50406), as collected from the published literature.
MEASURED_PROPERTY: Ki (nM)

For orientation, consider the following solved cases.
>  <COMPOUND>
O=S(=O)(c1cccc2ccccc12)c1n[nH]c2cc(NC3CCNCC3)ccc12

>  <SUBJECT_OF_TEST>
5-hydroxytryptamine receptor 6 (Homo sapiens, UniProt P50406)
Sequence (P50406 whole entry): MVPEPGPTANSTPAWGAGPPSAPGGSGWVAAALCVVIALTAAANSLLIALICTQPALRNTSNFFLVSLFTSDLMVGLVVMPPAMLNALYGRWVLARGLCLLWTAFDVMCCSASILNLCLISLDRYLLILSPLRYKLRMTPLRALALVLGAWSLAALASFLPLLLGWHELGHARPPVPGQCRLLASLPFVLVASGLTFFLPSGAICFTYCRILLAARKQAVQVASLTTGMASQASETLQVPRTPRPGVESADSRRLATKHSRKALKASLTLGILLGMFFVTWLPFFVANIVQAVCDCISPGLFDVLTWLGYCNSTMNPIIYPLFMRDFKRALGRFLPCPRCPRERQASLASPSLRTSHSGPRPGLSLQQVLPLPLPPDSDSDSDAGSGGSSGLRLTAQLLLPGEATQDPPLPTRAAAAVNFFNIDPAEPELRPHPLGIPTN

>  <EXPERIMENTAL_VALUE>
53

$$$$
>  <COMPOUND>
CCCC(Sc1cc(Cl)ccc1Cl)c1nc(N)nc(N2CCN(C)CC2)n1 (racemic)

>  <SUBJECT_OF_TEST>
5-hydroxytryptamine receptor 6 (Homo sapiens, UniProt P50406)

>  <EXPERIMENTAL_VALUE>
9

$$$$
>  <COMPOUND>
COc1ccc(S(=O)(=O)N2CC(C(=O)N3CC(CN)C3)c3ccccc32)c2ccccc12 (racemic)

>  <SUBJECT_OF_TEST>
5-hydroxytryptamine receptor 6 (Homo sapiens, UniProt P50406)

>  <EXPERIMENTAL_VALUE>
79.4

$$$$
>  <COMPOUND>
COc1ccc(NC(=O)N2CCN(c3ccc(-c4ccccc4)cc3)CC2)cc1N1CCN(C)CC1

>  <SUBJECT_OF_TEST>
5-hydroxytryptamine receptor 6 (Homo sapiens, UniProt P50406)

>  <EXPERIMENTAL_VALUE>
1430

$$$$
>  <COMPOUND>
O=S(=O)(c1ccccc1)n1ccc2c(N3CCN(CCCCOc4ccc(F)cc4)CC3)cccc21

>  <SUBJECT_OF_TEST>
5-hydroxytryptamine receptor 6 (Homo sapiens, UniProt P50406)

>  <EXPERIMENTAL_VALUE>
6.9

$$$$

P = CNc1cc(NS(=O)(=O)c2ccc(N)cc2)cc(NC)n1
Q = CCN1CCN(c2cn(S(=O)(=O)c3ccc4ccccc4c3)c3cc(Cl)ccc23)CC1
R = c1ccc2c(OCCCCCN3CCCCCC3)cccc2c1
List from greatest to least Ki. Provide the labels, sequenced as the question asks.
R, P, Q

I = CN(C)c1cc(Cl)c2c(c1)NC(=O)C(C)(c1ccccc1)C2=O (stereo not given)
II = Nc1ccc(S(=O)(=O)n2c3c(c4ccccc42)CCCC3)cc1
I or II : whose Ki is greater? Identify your selection by its label.
I

1 = Nc1ccc(CC2CCc3ccccc32)cc1 (stereo not given)
2 = O=S(=O)(c1cncc2ccccc12)N1CCC(CCN2CCN(c3cccc(C(F)(F)F)c3)CC2)CC1
Record comparison, field Ki: mark the lower of 1 and 2 . Identify your selection by its label.
2

----------
We begin with pKi values for 5-hydroxytryptamine receptor 6 (Homo sapiens, UniProt P50406), as collected from the published literature.
pKi: −log10 of the molar value.
MEASURED_PROPERTY: pKi

>  <COMPOUND>
COc1ccc2c(c1)c(-c1[nH]c(NCCc3ccccc3)nc1C)cn2S(=O)(=O)c1ccccc1

>  <SUBJECT_OF_TEST>
5-hydroxytryptamine receptor 6 (Homo sapiens, UniProt P50406)

>  <pKi>
7.08

$$$$

a = CCN/C(=N\S(=O)(=O)c1cccc(C)c1)N1CC(CC)C=N1 (stereo not given)
b = CN(C)CCC1=CC(Cc2ccccc2)c2ccccc21 (stereo not given)
Record comparison, field pKi: mark the lower of a and b . Identify your selection by its label.
a
(a: 7.56, b: 8.52)

----------
We begin with Ki values for 5-hydroxytryptamine receptor 6 (Homo sapiens, UniProt P50406), as collected from the published literature.
MEASURED_PROPERTY: Ki (nM)

For orientation, consider the following solved cases.
>  <COMPOUND>
O=C1CCc2ccc(OCCCCN3CCN(c4cccc5c4ccn5S(=O)(=O)c4ccccc4)CC3)cc2N1

>  <MEASURED_PROPERTY>
Ki

>  <EXPERIMENTAL_VALUE>
0.4

$$$$
>  <COMPOUND>
O=S(=O)(c1cccc(F)c1)c1cn(C2CCNC2)c2cc(F)ccc12 (stereo not given)

>  <MEASURED_PROPERTY>
Ki

>  <EXPERIMENTAL_VALUE>
18

$$$$
>  <COMPOUND>
CCN/C(=N\S(=O)(=O)c1ccc2c(c1)NCC2)N1CC(CC)C=N1 (stereo not given)

>  <MEASURED_PROPERTY>
Ki

>  <EXPERIMENTAL_VALUE>
399

$$$$
>  <COMPOUND>
CSc1nn2c(C)cc(C)nc2c1S(=O)(=O)c1cccc(Cl)c1

>  <MEASURED_PROPERTY>
Ki

>  <EXPERIMENTAL_VALUE>
0.759

$$$$
>  <COMPOUND>
CN1CCN(c2ccc3[nH]nc(S(=O)(=O)c4cccc(Cl)c4)c3c2)CC1

>  <MEASURED_PROPERTY>
Ki

>  <EXPERIMENTAL_VALUE>
1

$$$$
>  <COMPOUND>
CCN/C(=N\S(=O)(=O)c1ccc(NC(C)=O)c(Cl)c1)N1CC(CC)C=N1 (stereo not given)

>  <MEASURED_PROPERTY>
Ki

>  <EXPERIMENTAL_VALUE>
8.7

$$$$

P = O=S(=O)(c1ccc(Cl)cc1)c1n[nH]c2ccc(NC3CCNCC3)cc12
Q = O=c1[nH]c2c(N3CCN(CC[C@@H]4CCCN4S(=O)(=O)c4cccc5ncccc45)CC3)cccc2o1
Record comparison, field Ki: mark the lower of P and Q . Identify your selection by its label.
P

----------
We begin with Ki values for 5-hydroxytryptamine receptor 6 (Homo sapiens, UniProt P50406), as collected from the published literature.
MEASURED_PROPERTY: Ki (nM)

For orientation, consider the following solved cases.
>  <COMPOUND>
COc1ccc2c(c1)c(S(=O)(=O)c1cccc(F)c1)cn2C1CCCNC1 (stereo unspecified)

>  <SUBJECT_OF_TEST>
5-hydroxytryptamine receptor 6 (Homo sapiens, UniProt P50406)

>  <MEASURED_PROPERTY>
Ki

>  <EXPERIMENTAL_VALUE>
10.7

$$$$
>  <COMPOUND>
CC(Oc1cc(F)ccc1Cl)c1nc(N)nc(N2CCN(C)CC2)n1 (stereo unspecified)

>  <SUBJECT_OF_TEST>
5-hydroxytryptamine receptor 6 (Homo sapiens, UniProt P50406)

>  <MEASURED_PROPERTY>
Ki

>  <EXPERIMENTAL_VALUE>
39

$$$$
>  <COMPOUND>
CC(Nc1nc(N)nc(NCCc2cccs2)n1)c1ccc(F)cc1 (racemic)

>  <SUBJECT_OF_TEST>
5-hydroxytryptamine receptor 6 (Homo sapiens, UniProt P50406)

>  <MEASURED_PROPERTY>
Ki

>  <EXPERIMENTAL_VALUE>
380

$$$$
>  <COMPOUND>
Clc1ccc(-c2noc3c2CCNCC3)cc1

>  <SUBJECT_OF_TEST>
5-hydroxytryptamine receptor 6 (Homo sapiens, UniProt P50406)

>  <MEASURED_PROPERTY>
Ki

>  <EXPERIMENTAL_VALUE>
360

$$$$
>  <COMPOUND>
CNC(=O)c1cc(Oc2ccc(NC(=O)Nc3ccc(Cl)c(C(F)(F)F)c3)cc2)ccn1

>  <SUBJECT_OF_TEST>
5-hydroxytryptamine receptor 6 (Homo sapiens, UniProt P50406)

>  <MEASURED_PROPERTY>
Ki

>  <EXPERIMENTAL_VALUE>
6210

$$$$
>  <COMPOUND>
Cc1ccc(COc2ccc(Br)cc2CNC(C)c2ccccc2)cc1 (stereo unspecified)

>  <SUBJECT_OF_TEST>
5-hydroxytryptamine receptor 6 (Homo sapiens, UniProt P50406)

>  <MEASURED_PROPERTY>
Ki

>  <EXPERIMENTAL_VALUE>
5100

$$$$
>  <COMPOUND>
COc1ccc(Sc2ccc3c(c2)N2CCNCC2C3)cc1 (stereo unspecified)

>  <SUBJECT_OF_TEST>
5-hydroxytryptamine receptor 6 (Homo sapiens, UniProt P50406)

>  <MEASURED_PROPERTY>
Ki

>  <EXPERIMENTAL_VALUE>
78

$$$$
>  <COMPOUND>
CSc1ccccc1OCCN1CCC(CNS(=O)(=O)c2cccc(Cl)c2)CC1

>  <SUBJECT_OF_TEST>
5-hydroxytryptamine receptor 6 (Homo sapiens, UniProt P50406)

>  <MEASURED_PROPERTY>
Ki

>  <EXPERIMENTAL_VALUE>
147

$$$$

a = Brc1ccc2ccn(CCN3CCCN4CCCCC4C3)c2c1 (stereo unspecified)
b = CC(=O)N1CCc2ccc(NS(=O)(=O)c3c(Cl)nc4n3CCS4)cc21
c = COc1cccc(S(=O)(=O)n2c3c(c4ccccc42)CCN(C2CCCCC2)CC3)c1
d = Cn1c(=O)c2c(ncn2CCCN2CCN(c3cccc(Cl)c3)CC2)n(C)c1=O
List from greatest to least Ki. Provide the labels, sequenced as the question asks.
d, a, c, b
(d: 20300 nM, a: 4070 nM, c: 253 nM, b: 5.4 nM)
